target.entity: Vascular endothelial growth factor receptor 2 (Homo sapiens, UniProt P35968)
Sequence (P35968 whole entry): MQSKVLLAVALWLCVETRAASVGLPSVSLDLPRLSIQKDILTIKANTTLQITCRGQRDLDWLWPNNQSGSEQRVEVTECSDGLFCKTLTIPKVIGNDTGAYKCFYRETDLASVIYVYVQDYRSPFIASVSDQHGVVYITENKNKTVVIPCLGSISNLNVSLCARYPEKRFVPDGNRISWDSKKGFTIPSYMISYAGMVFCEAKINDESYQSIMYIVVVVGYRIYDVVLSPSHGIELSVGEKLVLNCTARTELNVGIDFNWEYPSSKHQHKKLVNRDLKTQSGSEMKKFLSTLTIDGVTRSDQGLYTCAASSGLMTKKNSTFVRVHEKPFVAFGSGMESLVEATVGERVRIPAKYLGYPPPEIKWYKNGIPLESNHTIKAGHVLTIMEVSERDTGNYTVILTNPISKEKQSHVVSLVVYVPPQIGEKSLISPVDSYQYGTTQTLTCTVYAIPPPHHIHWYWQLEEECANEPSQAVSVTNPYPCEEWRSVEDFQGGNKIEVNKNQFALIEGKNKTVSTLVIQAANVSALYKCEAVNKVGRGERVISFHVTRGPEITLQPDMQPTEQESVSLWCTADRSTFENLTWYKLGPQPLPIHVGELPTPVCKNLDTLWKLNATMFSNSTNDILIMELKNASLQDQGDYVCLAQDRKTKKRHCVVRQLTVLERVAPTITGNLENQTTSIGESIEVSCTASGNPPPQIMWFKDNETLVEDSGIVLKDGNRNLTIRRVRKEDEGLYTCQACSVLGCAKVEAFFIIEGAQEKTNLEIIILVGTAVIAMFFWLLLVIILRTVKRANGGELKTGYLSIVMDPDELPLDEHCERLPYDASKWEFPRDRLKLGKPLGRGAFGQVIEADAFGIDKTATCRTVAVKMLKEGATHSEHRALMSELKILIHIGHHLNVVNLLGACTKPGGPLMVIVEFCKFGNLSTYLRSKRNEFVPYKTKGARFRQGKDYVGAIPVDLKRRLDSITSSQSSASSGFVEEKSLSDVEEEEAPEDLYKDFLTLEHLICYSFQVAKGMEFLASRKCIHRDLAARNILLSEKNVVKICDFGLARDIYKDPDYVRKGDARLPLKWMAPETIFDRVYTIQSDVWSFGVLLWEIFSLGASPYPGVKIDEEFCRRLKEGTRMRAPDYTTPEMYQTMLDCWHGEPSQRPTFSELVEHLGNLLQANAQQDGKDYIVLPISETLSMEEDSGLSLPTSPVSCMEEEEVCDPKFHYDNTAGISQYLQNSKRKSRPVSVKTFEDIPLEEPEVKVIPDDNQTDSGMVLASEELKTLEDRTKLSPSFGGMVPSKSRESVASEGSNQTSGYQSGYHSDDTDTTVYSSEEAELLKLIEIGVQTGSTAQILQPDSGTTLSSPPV
test.protocol: Inhibition of KDR phosphorylation
reported.property: Ki (nM)

Examples with their reported Ki follow.
smiles_str=CNC(=O)c1cc(Oc2ccc3[nH]c(Nc4cc(OCCN5CCCC5)cc(C(F)(F)F)c4)nc3c2)ccn1 reported_result=287
smiles_str=CN1CCN(Cc2cc(Nc3nc4cc(Oc5ccnc6ccccc56)cc(Cl)c4o3)ccc2Cl)CC1 reported_result=2
smiles_str=COc1cc2nccc(Oc3ccc4oc(Nc5ccc(Cl)c(OC[C@@H]6CCCN6C)c5)nc4c3)c2cc1OC reported_result=0.5

a: COc1cc2ncnc(Oc3ccc4oc(Nc5ccc(Cl)c(OC[C@@H]6CCCN6C)c5)nc4c3)c2cc1OC
b: FC(F)(F)c1cc(Nc2nc3cc(Oc4ccncc4)ccc3[nH]2)ccc1Cl
Lookup: Problem: Given the entries a and b , determine which has the lower reported Ki. Write down the label attached to your selection.
Found: a

----------
target.entity: Vascular endothelial growth factor receptor 2 (Homo sapiens, UniProt P35968)
test.protocol: Inhibition of KDR phosphorylation
pKi: −log10 of the molar value.
reported.property: pKi

compound=CN1CCN(Cc2cc(Nc3nc4ccc(Oc5ncnc6[nH]ccc56)cc4[nH]3)ccc2Cl)CC1 target_entity="Vascular endothelial growth factor receptor 2 (Homo sapiens, UniProt P35968)" reported_property=pKi reported_result=7.77
compound="CN1CCCC1COc1cc(Nc2nc3cc(Oc4ccnc5[nH]ccc45)ccc3o2)ccc1Cl (single isomer, unassigned)" target_entity="Vascular endothelial growth factor receptor 2 (Homo sapiens, UniProt P35968)" reported_property=pKi reported_result=8.80
compound=CNC(=O)c1cc(Oc2ccc3[nH]c(Nc4ccc(C(F)(F)F)c(OCCN(C)C)c4)nc3c2)ccn1 target_entity="Vascular endothelial growth factor receptor 2 (Homo sapiens, UniProt P35968)" reported_property=pKi reported_result=8.52
compound=CN1CCC[C@H]1COc1cc(Nc2nc3cc(Oc4ccnc(C(N)=O)c4)ccc3o2)ccc1Cl target_entity="Vascular endothelial growth factor receptor 2 (Homo sapiens, UniProt P35968)" reported_property=pKi reported_result=8.52
compound=CCN(CC)CCOc1cc(Nc2nc3cc(Oc4ccnc(C(=O)NC)c4)ccc3o2)ccc1Cl target_entity="Vascular endothelial growth factor receptor 2 (Homo sapiens, UniProt P35968)" reported_property=pKi reported_result=8.30

P: COc1cc2ncnc(Oc3ccc4[nH]c(Nc5ccc(Cl)cc5)nc4c3)c2cc1OC
Q: CNC(=O)c1cc(Oc2ccc3oc(Nc4ccc(Cl)c(OCC5CCNCC5)c4)nc3c2)ccn1
Lookup: Select one: P or Q . Criterion: greater recorded pKi. Write down the label attached to your selection.
Found: Q
(Q: 8.52, P: 8.10)

----------
test.protocol: Oral bioavailability in Sprague-Dawley rat at 10 mg/kg, po
Assay type: ADME, organism-based
settings: in vivo
reported.property: bioavailability (%)

molecule="CN1CCCC1COc1cc(Nc2nc3cc(Oc4ccnc5[nH]ccc45)ccc3o2)ccc1Cl (single isomer, unassigned)" reported_result=17
molecule=COc1cc2nccc(Oc3ccc4oc(Nc5ccc(Cl)c(CN6CCN(C)CC6)c5)nc4c3)c2cc1OC reported_result=67

1: COc1cc2ncnc(Oc3ccc4oc(Nc5ccc(Cl)c(OC[C@@H]6CCCN6C)c5)nc4c3)c2cc1OC
2: CN1CCC[C@@H]1COc1cc(Nc2nc3cc(Oc4ccnc5ccccc45)ccc3[nH]2)ccc1C(F)(F)F
Lookup: Problem: Given the entries 1 and 2 , determine which has the lower reported bioavailability. Write down the label attached to your selection.
Found: 2
(2: 24%, 1: 60%)
